As shown below, each of these compounds has a reported IC50 value.
# Tested on: MOLM14 cells
# PROTOCOL_SUMMARY: Proliferation assay, spheroid-like growth, MOLM14 (MLL-AF9 rearranged)
# Format: cell-based, human
# COND: Homo sapiens, MOLM-14, 192 h, 8 days, confluence as measure of spheroid size, read-out: spheroid assay_OneTime MOLM14 IC50

Example compounds with recorded IC50:
INSERT INTO measurements (compound, obs_value) VALUES
  ('CC(C)[C@@H]([C@H]1C[C@@H](N2CC(OC3CC3)C2)C1)N1CC2(CCN(c3ncnnc3Oc3ccc(F)cc3-c3nnccc3C3CC3)C2)C1 (single isomer, unassigned) [Compound 274]', '2 nM'),
  ('CC(C)[C@H]([C@H]1C[C@@H](N2CCC[C@@H](C(=O)N(C)C)C2)C1)N1CC2(CCN(c3ncnnc3Oc3ccc(F)cc3-c3cncnc3C3CC3)C2)C1 (single isomer, unassigned) [Compound 50]', '< 2 nM'),
  ('CC(C)C([C@H]1C[C@@H](Nc2cncnc2)C1)N1CC2(CCN(c3ncnnc3Oc3ccc(F)cc3-c3cncnc3C3CC3)C2)C1 (some centres unmarked) [Compound 193]', '50 nM'),
  ('CC(C)[C@H]([C@H]1C[C@H](N2CCCCC2)C1)N1CC2(CCN(c3ncnnc3Oc3ccc(F)cc3-c3cncnc3C3CC3)C2)C1 (single isomer, unassigned) [Compound 49]', '27 nM');

Request: Give IC50 (MOLM14 cells) of the following compound: CC(C)[C@H]([C@H]1C[C@@H](N2CCOCC2)C1)N1CC2(CCN(c3ncnnc3Oc3ccc(F)cc3-c3cncnc3C3CC3)C2)C1 (single isomer, unassigned) [Compound 208]
Result: 29 nM

---

As shown below, each of these compounds has a reported IC50 value.
# Test system: MOLM14 cells
# PROTOCOL_SUMMARY: Proliferation assay, spheroid-like growth, MOLM14 (MLL-AF9 rearranged)
# Format: cell-based, human
# COND: Homo sapiens, MOLM-14, 192 h, 8 days, confluence as measure of spheroid size, read-out: spheroid assay_OneTime MOLM14 IC50
Respond with the bare value in nM.

Example compounds with recorded IC50:
INSERT INTO results (compound, obs_value) VALUES
  ('CC(C)[C@H]([C@H]1C[C@@H](N2CC3(CCN(C)C3=O)C2)C1)N1CC2(CCN(c3ncnnc3Oc3ccc(F)cc3-c3cncnc3C3CC3)C2)C1 (single isomer, unassigned) [Compound 315]', 18),
  ('CC(C)[C@H]([C@H]1C[C@@H](N2CCC(S(=O)(=O)C(C)C)CC2)C1)N1CC2(CCN(c3ncnnc3Oc3ccc(F)cc3-c3cncnc3C3CC3)C2)C1 (single isomer, unassigned) [Compound 209]', 16),
  ('CC(C)[C@H]([C@H]1C[C@@H](NC(=O)C2CC2)C1)N1CC2(CCN(c3ncnnc3Oc3ccc(F)cc3-c3ncccc3C3CC3)C2)C1 (single isomer, unassigned) [Compound 27]', 36),
  ('CC(=O)N1CCN([C@H]2C[C@@H]([C@H](C(C)C)N3CC4(CCN(c5ncnnc5Oc5ccc(F)cc5-c5nnccc5C5CC5)C4)C3)C2)CC1 (single isomer, unassigned) [Compound 277]', 250),
  ('CC(=O)N[C@H]1C[C@@H](C(C(C)C)N2CC3(CCN(c4ncnnc4Oc4ccc(F)cc4-c4cccc(=O)n4C4CC4)C3)C2)C1 (stereo partly shown) [Compound 188]', 520);

Request: Field request: IC50 | item: CC(C)C([C@H]1C[C@@H](N2CCC(S(C)(=O)=O)CC2)C1)N1CC2(CCN(c3ncnnc3Oc3ccc(F)cc3-c3cncnc3C3CC3)C2)C1 (stereo partly shown) [Compound 132]
Result: 76

Request: Field request: IC50 | item: CC(C)[C@H]([C@H]1C[C@@H](NC(=O)C2CC2)C1)N1CC2(CCN(c3ncnnc3Oc3ccc(F)cc3-c3n[nH]c(=O)cc3C3CC3)C2)C1 (single isomer, unassigned) [Compound 309]
Result: 22

All values here come from patent US20240417405A1.
